Field: inhibition of DPPH absorbance at 517 nm (maximal scavenging ability). Provide a value for each of the compounds that follow.
# assay_remarks: DPPH free radical scavenging assay
# run_parameters: cell free; 8 min
Output spec: scalar in %, unitless text.

Query string: So what does the record say about inhibition of DPPH absorbance at 517 nm (maximal scavenging ability) for C=C1CCC2=C(CO)C(=O)O[C@H]2/C=C(\C)[C@H](OC(C)=O)CC1=O [achillolide A] ?
Result string: 60

Query string: Quick one: inhibition of DPPH absorbance at 517 nm (maximal scavenging ability) for O=c1c(O)c(-c2ccc(O)c(O)c2)oc2cc(O)cc(O)c12 [quercetin, 3,3′,4′,5,7-Pentahydroxyflavone, reference compound] ?
Result string: 90

Query string: Given COc1cc(-c2oc3cc(OC)c(OC)c(O)c3c(=O)c2O)ccc1O , state its recorded inhibition of DPPH absorbance at 517 nm (maximal scavenging ability).
Result string: 60

Query string: inhibition of DPPH absorbance at 517 nm (maximal scavenging ability) lookup needed for CC12CC3CC(C)(C1)CC(N)(C3)C2 [memantine, reference compound] , thanks.
Result string: 7
